# System: RXRa homodimer (NR concentration 180 nM)
# TEST_METHOD_NOTES: PBM binding z-score (relative to random genomic background probes); higher = stronger binding; sequences stand for … in GC…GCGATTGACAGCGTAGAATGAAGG
Where PBM binding z-score equals or exceeds 2, the correct label is T; where it does not, the label is F.

input: Hi, just wondering whether GCTACCAGGCCATTTGGGTCACTCAATGACGGGC shows PBM binding z-score of 2 or higher.
output: F

input: Hi, just wondering whether ATATGTACGTTAGCTGGGGTCATTCAGACTAGGC shows PBM binding z-score of 2 or higher.
output: T

input: Hi, just wondering whether AGTATTAGTTGAGACGAGGGCAACCGATAGGTTG shows PBM binding z-score of 2 or higher.
output: F

input: Hi, just wondering whether GCAGACACGTGAAACGCAGGTAACTCAGGGTGGC shows PBM binding z-score of 2 or higher.
output: F

input: Hi, just wondering whether CAGCCTACGTCAGGGCCAGTATAGGAGGAACGTT shows PBM binding z-score of 2 or higher.
output: F

input: Hi, just wondering whether TAGCCTAGGTCATTGGGCCTGTATAGTACGCATC shows PBM binding z-score of 2 or higher.
output: T

input: Hi, just wondering whether CCTATAAGTTGACCATAAGGGCAACCGAAGCTCG shows PBM binding z-score of 2 or higher.
output: F

input: Hi, just wondering whether TCATATAGGTAGAGGTGAAAGTCGAACGATATGA shows PBM binding z-score of 2 or higher.
output: F

input: Hi, just wondering whether GATACACGGTCAGCTAGAGGCCAGAGTATGGAAA shows PBM binding z-score of 2 or higher.
output: F

input: Hi, just wondering whether CGAACGAGGGCAGGAGTTGATAGCAAATGCCGAT shows PBM binding z-score of 2 or higher.
output: F

input: Hi, just wondering whether TCGAGTAGGTTAGGGGCATTCCGAATGGCGTCGA shows PBM binding z-score of 2 or higher.
output: F

input: Hi, just wondering whether CCTAGTTGGTCAGGAGGTCAAACACCGGATATGA shows PBM binding z-score of 2 or higher.
output: T

input: Hi, just wondering whether CCTTATGGGTCACGAGGTTATAGCACGACGAGCG shows PBM binding z-score of 2 or higher.
output: T

input: Hi, just wondering whether TTACCTAGGTGAAAGGTCGTTGATGCACGCCTTG shows PBM binding z-score of 2 or higher.
output: T

input: Hi, just wondering whether CCTAGCAGGCCAGGCTCACTCAAGCATTTCGCTT shows PBM binding z-score of 2 or higher.
output: F

input: Hi, just wondering whether ACTATTAGTTGAGACGAGGGCAGCCGATAGGTTG shows PBM binding z-score of 2 or higher.
output: F

input: Hi, just wondering whether CCTTACGGGTCACTCCAGGTTATAGGATCGGAGT shows PBM binding z-score of 2 or higher.
output: T

input: Hi, just wondering whether CCTACTGGGCCATCATGTCATTGATATCAACGTT shows PBM binding z-score of 2 or higher.
output: F

input: Hi, just wondering whether TGAATGAGGTTATAAGAACAGGGAACGTTGCAAA shows PBM binding z-score of 2 or higher.
output: F

input: Hi, just wondering whether AGAACAAGGGCAATGAGTTGATAGCACGGGTGGC shows PBM binding z-score of 2 or higher.
output: F

input: Hi, just wondering whether GCTAGCAGGCCATTTGGCTCACTCAATGACGGGC shows PBM binding z-score of 2 or higher.
output: F

input: Hi, just wondering whether TCTCGGAGGACATGAAAGGTCAGAGCTCGACATC shows PBM binding z-score of 2 or higher.
output: T

input: Hi, just wondering whether ACAGCCAGGTGATGAAGGTAACTCAGGCTATCAT shows PBM binding z-score of 2 or higher.
output: F

input: Hi, just wondering whether GGAAAGAGGGCAAAGTTGATAGCATCTGTCGACG shows PBM binding z-score of 2 or higher.
output: T

input: Hi, just wondering whether TCTAGTTGGTCACGAAGGTCACACACGACGGGTA shows PBM binding z-score of 2 or higher.
output: T

input: Hi, just wondering whether TCTAGTTGGTCATAGGTCACACACTCGAAATGCG shows PBM binding z-score of 2 or higher.
output: T

input: Hi, just wondering whether GCGTGTAGATCAAGGTTAAGAAAGACTAAGCTAA shows PBM binding z-score of 2 or higher.
output: F

input: Hi, just wondering whether CTGACTGGGGCAAGGTTACCATAACGCACAGCCA shows PBM binding z-score of 2 or higher.
output: F

input: Hi, just wondering whether AGTCAAAGTTCAGAACGAGGTAACGTAAAGCACG shows PBM binding z-score of 2 or higher.
output: T

input: Hi, just wondering whether CGTCGAAGGTCAAAGGTCAGTGAAGAGATGACGG shows PBM binding z-score of 2 or higher.
output: T

input: Hi, just wondering whether GTACCAAGGTGAATAGGTCGTTGAAGAGTAGGCG shows PBM binding z-score of 2 or higher.
output: F

input: Hi, just wondering whether TCTCGGAGGACACGAAAGGTAAGAGCTCGACATC shows PBM binding z-score of 2 or higher.
output: F

input: Hi, just wondering whether AGTCAAAGTCCACTAGGTAACGTAAGATTCAGCT shows PBM binding z-score of 2 or higher.
output: F

input: Hi, just wondering whether TTACCAAGGTGAAAGGTCGATGATGCACGCCTTG shows PBM binding z-score of 2 or higher.
output: T

input: Hi, just wondering whether AGAATGAGGTAACCAAAGATCAGGGAAACGCTTG shows PBM binding z-score of 2 or higher.
output: F

input: Hi, just wondering whether CCGAGTAGGTTATGGGGCATTCATGCAACGGTGA shows PBM binding z-score of 2 or higher.
output: F

input: Hi, just wondering whether TTACCAAGGTGAAAGGCCGTTGATGCACGCCTTG shows PBM binding z-score of 2 or higher.
output: F

input: Hi, just wondering whether AATACCGGGTCATCGTAGGCCAGAGTACGCACAG shows PBM binding z-score of 2 or higher.
output: T

input: Hi, just wondering whether TAGCCTAGGTCAGATCGGGCCATTATACGCTATA shows PBM binding z-score of 2 or higher.
output: F

input: Hi, just wondering whether TCTTGTCGATCAAGCAGGTTAAGAAAGCCTGAGT shows PBM binding z-score of 2 or higher.
output: F

input: Hi, just wondering whether CTCGAACGGTCGGTTGAGGTGAGTATACGGATAA shows PBM binding z-score of 2 or higher.
output: F

input: Hi, just wondering whether AATTACGGGTCAACGAGGTTATAGCACGCGTATA shows PBM binding z-score of 2 or higher.
output: T

input: Hi, just wondering whether ATTCAAAGTTCAGGACGAGGTAACGTAAAGCACG shows PBM binding z-score of 2 or higher.
output: T

input: Hi, just wondering whether CGAACGAGGGCACGAGTTGATAGCAAATGCCGAT shows PBM binding z-score of 2 or higher.
output: F

input: Hi, just wondering whether ATCGAAAGGTCGAGGTGAATATAGAGAAAGGGAA shows PBM binding z-score of 2 or higher.
output: T

input: Hi, just wondering whether CCGACTGGGGCAGAAAGGTTACCATGCCATCCGG shows PBM binding z-score of 2 or higher.
output: F

input: Hi, just wondering whether CTCGAAAGATCGTGCTCAGGTGAGTATACCAAAC shows PBM binding z-score of 2 or higher.
output: F

input: Hi, just wondering whether TCTTGTCGATCAACAGGAGGTTAAGAAAGATCGA shows PBM binding z-score of 2 or higher.
output: F

input: Hi, just wondering whether GCGACTGCGGCATCAGCAGGTTACCATAACTTAA shows PBM binding z-score of 2 or higher.
output: F

input: Hi, just wondering whether TCAGATAGGTAATACAGGTGAAAGTCGGCATCTA shows PBM binding z-score of 2 or higher.
output: F

input: Hi, just wondering whether CCGACTGGGGCATAAGGTTACGATAAGCCAGCCC shows PBM binding z-score of 2 or higher.
output: F

Where do these numbers come from? They come from the supplement of paper PMC6555819.
